// data source = paper PMC5427163

Experiment: LC-MS/MS measurement of dabrafenib and metabolites in patient plasma at steady state
Type: in vivo, human
Settings: patient plasma, steady state, dabrafenib 150 mg BID orally
Overview of reported Diff (difference between the highest and lowest concentrations) across a group of compounds:

Reference set (2 entries):
CC(C)(C(=O)O)c1nc(-c2cccc(NS(=O)(=O)c3c(F)cccc3F)c2F)c(-c2ccnc(N)n2)s1    3-fold
CC(C)(C)c1nc(-c2cccc(NS(=O)(=O)c3c(F)cccc3F)c2F)c(-c2ccnc(N)n2)s1    19-fold

QUERY: Dear colleague, please send me the reported Diff (difference between the highest and lowest concentrations) for CC(C)c1nc(-c2cccc(NS(=O)(=O)c3c(F)cccc3F)c2F)c(-c2ccnc(N)n2)s1 when you can.
RESULT: 4-fold
